Recorded values, source PubChem BioAssay (NCI).

# System: NCI-H460 lung
# protocol: NCI-60 one-dose screen, 48 h
# measurement context: 10 µM unless noted
About 83,000 compounds went through this panel and 20% of them were active in at least one assay; those are over-represented in the sample as a whole. The source made the active and inactive calls. Rule for the calls: active = growth percent below 10; inactive = the rest.
The reply should be one of these categories: 1 (yes) for active, 0 (no) for inactive

Recorded test call requested for O=C(O)CNC(=O)C1(N2C(=O)c3ccccc3C2=O)CCCC1
0 (no)

Recorded test call requested for Nc1nc2c(nnn2Cc2ccc(Cl)c(Cl)c2)c(=O)[nH]1
0 (no)

Recorded test call requested for COc1cc(C2=NN(C=O)C(c3cccc(Nc4ccnc5cc(Cl)ccc45)c3)C2)cc(OC)c1OC (stereo unspecified)
0 (no)

Recorded test call requested for O=C(Nc1cccc(Cl)c1)Nc1cccc(Cl)c1
0 (no)

Recorded test call requested for CC(=O)N1N=C(c2ccc(Nc3ccnc4cc(Cl)ccc34)cc2)CC1c1ccc(Cl)cc1 (stereo unspecified)
0 (no)

Recorded test call requested for COC(=O)[C@H](Cc1cnc[nH]1)NC(=O)[C@@H](NC(=O)Nc1cc(C(F)(F)F)cc(C(F)(F)F)c1)C(C)C
1 (yes)

Recorded test call requested for O=C(C(=O)c1cc(Br)ccc1O)c1cc(Br)ccc1O
0 (no)

Recorded test call requested for CCOC(=O)/C=C1/SC(=Nc2ccc(C#N)cc2)N(Cc2ccco2)C1=O
0 (no)

Recorded test call requested for O=C1/C(=C/c2cccc(Cl)c2)CCc2ccccc21
0 (no)

Recorded test call requested for c1ccc(-c2oc(-c3ccccc3)c3ccccc23)cc1
0 (no)

Recorded test call requested for O=C1c2cccc3c([N+](=O)[O-])ccc(c23)C(=O)N1CCCCl
1 (yes)

Recorded test call requested for N#CC1c2ccccc2C=CN1C(=O)N(c1ccccc1)c1ccccc1 (stereo unspecified)
0 (no)

Recorded test call requested for CCCCCN(CCCCC)CCCNc1c2c(nc3ccc(Cl)cc13)CCCC2
0 (no)

Recorded test call requested for N#Cc1ccc(-c2csc(Nc3ccc4nc5n(c(=O)c4c3)CCC5)n2)cc1
0 (no)

Recorded test call requested for COC(=O)c1c(NC(=O)CSc2nnnn2-c2ccc(OC)cc2)sc(C)c1C
0 (no)

Recorded test call requested for CCCCCCCCCCCCCCCCNC(=O)Nc1ccc2ccccc2c1
0 (no)

Recorded test call requested for COC(=O)[C@H]1[C@H]2C[C@@H]3c4[nH]c5cc(OC)ccc5c4CCN3C[C@H]2C[C@@H](OC(=O)/C=C/c2cc(OC)c(OC)c(OC)c2)[C@@H]1OC
0 (no)

Recorded test call requested for CC(C)=CCNc1ncnc2c1ncn2C1OC(COP(=O)(O)O)C(O)C1O (stereo unspecified)
0 (no)

Recorded test call requested for Oc1ccc(/C=N/Nc2nc3ccccc3s2)c(O)c1
0 (no)

Recorded test call requested for Cc1cc(C)c(C(=O)c2cccs2)c(C)c1
0 (no)

Recorded test call requested for C#C[C@]1(O)CCC2C3CCc4cc(O)ccc4C3CC[C@@]21C (stereo partly specified)
0 (no)
